Where a name gives a salt, the structure may show the parent alone.
List of pIC50 tested on Human Factor XIa (Homo sapiens (Human), UniProt P03951).
Sequence (P03951 388-625): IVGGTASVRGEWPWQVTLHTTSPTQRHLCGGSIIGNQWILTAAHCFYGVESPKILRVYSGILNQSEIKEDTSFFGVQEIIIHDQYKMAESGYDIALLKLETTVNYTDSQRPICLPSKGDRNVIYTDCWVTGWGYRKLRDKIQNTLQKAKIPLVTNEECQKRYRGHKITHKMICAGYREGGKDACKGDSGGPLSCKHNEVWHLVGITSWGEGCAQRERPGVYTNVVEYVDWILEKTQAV
Sequence (P03951 19-387 partner): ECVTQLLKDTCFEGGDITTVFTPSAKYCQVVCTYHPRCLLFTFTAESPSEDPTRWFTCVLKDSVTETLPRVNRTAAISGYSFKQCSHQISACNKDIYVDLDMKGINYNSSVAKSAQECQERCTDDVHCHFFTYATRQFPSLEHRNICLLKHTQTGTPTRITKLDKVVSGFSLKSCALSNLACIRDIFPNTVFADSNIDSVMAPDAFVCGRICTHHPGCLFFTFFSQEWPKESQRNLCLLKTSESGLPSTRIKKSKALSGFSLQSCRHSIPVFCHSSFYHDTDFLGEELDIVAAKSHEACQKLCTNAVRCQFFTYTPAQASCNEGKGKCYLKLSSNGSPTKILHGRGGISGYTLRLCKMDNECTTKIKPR
Numbers only, as −log10 of the molar value.

COMPOUND	pIC50
C[C@H]1CN([C@H]2C[C@@H](C(=O)Nc3ccccc3)N(C(=O)/C=C/c3cc(Cl)ccc3-n3cnnn3)C2)CCN1S(N)(=O)=O [Example 57, trifluoroacetate]	7.57
COC(=O)Nc1ccc(-c2[nH]c([C@@H]3C[C@H](C4CCN(S(C)(=O)=O)CC4)CN3C(=O)[C@H]3CC[C@H]([C@H](C)N)CC3)nc2Cl)cc1 [Example 86, bis(trifluoroacetate)]	8.00

Lab note: next compound to report on.
The recorded pIC50 for COC(=O)Nc1ccc(-c2[nH]c([C@@H]3C[C@H](C4CCN(S(C)(=O)=O)CC4)CN3C(=O)[C@H]3CC[C@H](CN)CC3)nc2Cl)cc1 [Example 96, bis(trifluoroacetate)] is 8.38

* * *

List of pIC50 tested on human thrombin (Homo sapiens (Human), UniProt P00734).
pIC50: −log10 of the molar value.

COMPOUND	SYSTEM_TESTED	pIC50
NC[C@H]1CC[C@H](C(=O)N2C[C@@H](N3CCN(S(=O)(=O)C4CC4)CC3)C[C@H]2C(=O)Nc2ccc(C(=O)O)cc2)CC1 [Example 55, bis(trifluoroacetate)]	human thrombin (Homo sapiens (Human), UniProt P00734)	< 4.00
CS(=O)(=O)N1CCN([C@H]2C[C@@H](C(=O)Nc3ccc(C(=O)O)cc3)N(C(=O)c3ccc(C(=N)N)cc3)C2)CC1 [Example 20, bis(trifluoroacetate)]	human thrombin (Homo sapiens (Human), UniProt P00734)	< 4.00

Lab note: next compound to report on.
The recorded pIC50 for COC(=O)Nc1ccc(-c2[nH]c([C@@H]3C[C@H](C4CCN(S(C)(=O)=O)CC4)CN3C(=O)[C@H]3CC[C@H](CN)CC3)nc2Cl)cc1 [Example 96, bis(trifluoroacetate)] is < 4.00

* * *

SYSTEM_TESTED: human thrombin (Homo sapiens (Human), UniProt P00734)
pIC50: −log10 of the molar value. Structures can show the parent of a compound that is named as a salt.
Task for the reader: assign each of the following compounds its reported pIC50.

COMPOUND	SYSTEM_TESTED	MEASURE	OBSERVED_MEASUREMENT
COC(=O)Nc1ccc(-c2cnc([C@@H]3C[C@H](N4CCN(S(C)(=O)=O)CC4)CN3C(=O)C3CCN(C(=N)N)CC3)[nH]2)cc1 [Example 98, trihydrochloride]	human thrombin (Homo sapiens (Human), UniProt P00734)	pIC50	< 4.00

Quick batch: pIC50 for everything below.
1. C[C@H]1CN([C@H]2C[C@@H](C(=O)Nc3ccccc3)N(C(=O)/C=C/c3cc(Cl)ccc3-n3cnnn3)C2)CCN1S(N)(=O)=O [Example 57, trifluoroacetate]
2. CS(=O)(=O)N1CCN([C@H]2C[C@@H](C(=O)Nc3ccc(C(=O)O)cc3)N(C(=O)C3CCN(C(=N)N)CC3)C2)CC1 [Example 9, bis(trifluoroacetate)]
3. COC(=O)Nc1ccc(-c2[nH]c([C@@H]3C[C@H](C4CCN(S(C)(=O)=O)CC4)CN3C(=O)c3ccc(NC(=N)N)cc3)nc2Cl)cc1 [Example 79, bis(trifluoroacetate)]
4. Cn1cc(Cl)c2c(F)c(C(=O)N3C[C@@H](C4CCN(S(C)(=O)=O)CC4)C[C@H]3C(=O)Nc3ccc(C(=O)O)cc3)ccc21

["< 4.00", "< 4.00", 4.40, "< 4.00"]
